// reported Normalized Z score 2 for each item listed
- target.entity: SpCas9 (Streptococcus pyogenes serotype M1, UniProt Q99ZW2)
- Sequence (Q99ZW2 whole entry): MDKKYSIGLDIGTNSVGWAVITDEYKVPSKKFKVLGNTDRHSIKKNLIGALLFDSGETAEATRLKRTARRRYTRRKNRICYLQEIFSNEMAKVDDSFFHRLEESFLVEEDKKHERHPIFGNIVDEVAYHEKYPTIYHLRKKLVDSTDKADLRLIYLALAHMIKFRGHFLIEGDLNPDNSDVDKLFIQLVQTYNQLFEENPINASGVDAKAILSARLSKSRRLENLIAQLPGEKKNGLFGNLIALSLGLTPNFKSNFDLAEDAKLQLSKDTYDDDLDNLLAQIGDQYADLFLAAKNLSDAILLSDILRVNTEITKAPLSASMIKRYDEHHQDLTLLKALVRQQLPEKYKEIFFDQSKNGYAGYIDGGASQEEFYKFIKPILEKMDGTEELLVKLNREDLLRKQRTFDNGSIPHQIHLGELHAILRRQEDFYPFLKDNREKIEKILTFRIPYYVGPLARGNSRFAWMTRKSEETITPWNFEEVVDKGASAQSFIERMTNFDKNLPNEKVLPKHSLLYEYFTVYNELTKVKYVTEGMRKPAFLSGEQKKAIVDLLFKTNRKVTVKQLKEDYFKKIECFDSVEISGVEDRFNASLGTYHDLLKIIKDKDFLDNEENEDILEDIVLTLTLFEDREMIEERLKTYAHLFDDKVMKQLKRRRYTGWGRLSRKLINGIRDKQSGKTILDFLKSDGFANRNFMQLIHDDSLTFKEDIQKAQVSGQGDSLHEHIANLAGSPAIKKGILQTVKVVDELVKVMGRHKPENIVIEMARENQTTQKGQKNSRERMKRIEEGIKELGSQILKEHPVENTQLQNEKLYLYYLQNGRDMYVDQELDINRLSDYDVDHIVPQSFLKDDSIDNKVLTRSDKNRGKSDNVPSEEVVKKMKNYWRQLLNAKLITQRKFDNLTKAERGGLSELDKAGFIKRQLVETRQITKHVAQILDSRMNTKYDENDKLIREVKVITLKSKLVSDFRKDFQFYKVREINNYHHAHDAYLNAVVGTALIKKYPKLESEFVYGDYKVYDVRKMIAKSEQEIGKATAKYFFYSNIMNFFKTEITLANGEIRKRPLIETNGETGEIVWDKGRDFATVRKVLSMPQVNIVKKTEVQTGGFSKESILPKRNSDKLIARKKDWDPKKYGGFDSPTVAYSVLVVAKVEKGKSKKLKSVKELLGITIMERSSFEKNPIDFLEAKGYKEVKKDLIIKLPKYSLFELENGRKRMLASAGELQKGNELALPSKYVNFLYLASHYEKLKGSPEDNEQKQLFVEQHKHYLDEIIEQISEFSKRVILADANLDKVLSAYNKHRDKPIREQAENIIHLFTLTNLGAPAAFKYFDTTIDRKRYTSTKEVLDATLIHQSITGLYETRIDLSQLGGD
- assay.explanation: Strand displacement assay (SDA) / cumulative activity assay (CAA), SpCas9 primary screen
- Assay type: biochemical
- experimental.setup: Primary Screen (150 min); replicate 2
quantity: Normalized Z score 2

INSERT INTO results (compound, reported) VALUES
  ('O=C(NCc1ccc2c(c1)OCO2)c1cccc(Oc2cc(-c3ccccc3)ncn2)c1', 0.41),
  ('O=C(NC1CCCCC1)c1cccc(Oc2cc(-c3ccccc3)ncn2)c1', 0.36),
  ('C=Cc1ccc(CSC2=NS(=O)(=O)c3ccccc3N2)cc1', 0.17),
  ('Cc1c(P(=S)(N2CCOCC2)N2CCOCC2)cc(C#N)n1C', 0.06),
  ('Cc1sc2nc3n(c(=O)c2c1-c1ccccc1)CCC3', 0.05),
  ('O=C(Nc1ccc(F)c(Cl)c1)c1ccc(Oc2ccnc(-c3ccc(F)cc3)n2)cc1', 0.29),
  ('O=C(CCC(=O)c1ccc(F)cc1)OC1CCOC1=O (centres unmarked)', 0.04),
  ('N=C1N=CC(=NNc2cc(C(=O)O)ccc2Cl)S1', 0.07),
  ('CCCN(CCC)C1=CC(=O)C(C)=C(C)C1=O', 0.30),
  ('O=C(CCS(=O)(=O)c1ccc(Cl)cc1)Nc1nc(-c2ccccn2)cs1', 0.04),
  ('O=C(CSc1nccn1-c1cccc(F)c1)N1CCN(c2ccc(O)cc2)CC1', 0.33),
  ('COc1ccc(OC)c(CNC(=O)c2ccc(Oc3ccnc(-c4cccc(F)c4)n3)cc2)c1', 0.24),
  ('CCC(C)NC(=O)c1cccc(Oc2cc(-c3ccccc3)ncn2)c1 (centres unmarked)', 0.35),
  ('CCc1ccc(NC(=O)C(C#N)=Cc2cc(C#N)n(C)c2C)cc1', 0.08),
  ('Cc1ccccc1C(=O)Nc1nc2ccc(S(N)(=O)=O)cc2s1', 0.04),
  ('O=C([O-])C(O)Cc1ccc(O)c(O)c1.[Na+] (centres unmarked)', 0.29),
  ('COc1ccc(-n2c(N(C(C)=O)C(C)=O)c(C#N)c3nc4ccccc4nc32)cc1', 0.16);

###

- target.entity: SpCas9 (Streptococcus pyogenes serotype M1)
- assay.explanation: eGFP disruption assay, SpCas9, U2OS.eGFP.PEST cells
- Assay type: cell-based
- experimental.setup: replicate 2
Listed next: entries and their corresponding Normalized Z rep2.
quantity: Normalized Z rep2

INSERT INTO results (compound, quantity, reported) VALUES
  ('CCCCNC(=O)CN1CCN(c2ccc(C(=O)O)cc2NC(=O)c2ccccc2Cl)CC1', 'Normalized Z rep2', '−0.05'),
  ('Fc1cccc(-c2nnc3sc(CCCc4ccccc4)nn23)c1', 'Normalized Z rep2', '−0.34'),
  ('O=C(NCC1CCCO1)c1sc(=S)n2c1[nH]c(=O)c1cc3c(cc12)OCO3 (stereo not shown)', 'Normalized Z rep2', '−0.05'),
  ('NC(=O)c1sc(=S)n2c1[nH]c(=O)c1ccc(Cl)cc12', 'Normalized Z rep2', '−0.23');

###

- target.entity: SaCas9 (Staphylococcus aureus)
- Sequence (J7RUA5 whole entry): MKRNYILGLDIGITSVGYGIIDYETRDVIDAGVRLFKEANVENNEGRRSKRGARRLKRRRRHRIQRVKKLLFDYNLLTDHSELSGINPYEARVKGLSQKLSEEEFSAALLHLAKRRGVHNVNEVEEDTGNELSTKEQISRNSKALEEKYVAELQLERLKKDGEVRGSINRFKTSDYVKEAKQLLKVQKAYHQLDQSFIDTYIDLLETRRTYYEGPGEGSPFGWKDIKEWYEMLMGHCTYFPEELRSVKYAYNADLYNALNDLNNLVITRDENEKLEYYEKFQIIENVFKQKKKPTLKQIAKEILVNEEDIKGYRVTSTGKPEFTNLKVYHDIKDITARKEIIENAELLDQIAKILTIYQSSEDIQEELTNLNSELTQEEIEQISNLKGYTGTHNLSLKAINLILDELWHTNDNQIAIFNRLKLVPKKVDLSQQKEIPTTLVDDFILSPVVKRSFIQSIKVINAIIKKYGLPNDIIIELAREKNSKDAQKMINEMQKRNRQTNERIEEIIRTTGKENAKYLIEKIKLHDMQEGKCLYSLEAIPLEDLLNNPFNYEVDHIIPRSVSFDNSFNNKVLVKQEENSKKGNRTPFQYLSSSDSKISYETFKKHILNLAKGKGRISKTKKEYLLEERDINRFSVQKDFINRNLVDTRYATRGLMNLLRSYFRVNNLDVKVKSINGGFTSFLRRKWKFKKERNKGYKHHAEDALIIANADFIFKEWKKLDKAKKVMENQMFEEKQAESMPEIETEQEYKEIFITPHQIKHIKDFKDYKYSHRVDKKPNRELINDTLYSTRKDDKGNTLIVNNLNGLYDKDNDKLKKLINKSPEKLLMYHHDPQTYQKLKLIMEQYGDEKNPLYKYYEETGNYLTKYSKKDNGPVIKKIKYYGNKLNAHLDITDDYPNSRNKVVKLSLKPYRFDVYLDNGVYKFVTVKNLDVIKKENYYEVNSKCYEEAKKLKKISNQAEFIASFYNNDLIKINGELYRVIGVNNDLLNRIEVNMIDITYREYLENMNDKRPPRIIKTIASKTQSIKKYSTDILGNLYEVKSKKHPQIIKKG
- assay.explanation: Strand displacement assay, SaCas9 primary screen
- Type: biochemical
- experimental.setup: SaCas9 primary screen, Auto Zscore, replicate 2
Friendly reminder: Auto Zscore Rep 2 below 0.1 is 1, at or above is -1.

INSERT INTO results (compound, target_entity, answer_label) VALUES
  ('Cn1c(=O)c2c(-c3ccccc3)n3c(c2n(C)c1=O)C(c1ccc(O)c(O)c1)Nc1ccccc1-3 (centres unmarked)', 'SaCas9 (Staphylococcus aureus)', 1),
  ('Cc1ccc(C)c(SCC(=O)NC(C)C(c2ccccc2)N2CCOCC2)c1 (centres unmarked)', 'SaCas9 (Staphylococcus aureus)', 1),
  ('CN(C)S(=O)(=O)Nc1ccc(N2CCCC(CN3CCCC3)C2)c(C(=O)O)c1 (centres unmarked)', 'SaCas9 (Staphylococcus aureus)', 1),
  ('Nc1c(C(=O)N2CCCC2)sc(=S)n1Cc1ccccc1', 'SaCas9 (Staphylococcus aureus)', 1),
  ('O=C1CC(NC(=O)c2ccc(Cl)cc2)C(=O)N1 (centres unmarked)', 'SaCas9 (Staphylococcus aureus)', -1),
  ('O=C(CSc1ccc2ccccc2c1)N1CCN(c2ccc(O)cc2)CC1', 'SaCas9 (Staphylococcus aureus)', 1),
  ('Brc1ccc(OCc2nn3c(-c4ccccn4)nnc3s2)cc1', 'SaCas9 (Staphylococcus aureus)', -1),
  ('C=C1C(C(=O)NCc2ccco2)C1C(=O)NCc1ccco1 (centres unmarked)', 'SaCas9 (Staphylococcus aureus)', -1),
  ('Cc1ccc(OCc2nn3c(-c4ccoc4C)nnc3s2)cc1', 'SaCas9 (Staphylococcus aureus)', 1),
  ('COc1ccc(-c2[nH]nc3nc(-c4ccc(O)c(O)c4)cc(C(=O)O)c23)cc1', 'SaCas9 (Staphylococcus aureus)', 1),
  ('CCCCN(CC)c1ncc(NS(C)(=O)=O)cc1C(=O)O', 'SaCas9 (Staphylococcus aureus)', 1),
  ('Cc1ccc(OCc2nn3c(-c4ccoc4C)nnc3s2)cc1C', 'SaCas9 (Staphylococcus aureus)', 1),
  ('CCN(Cc1ccccc1)c1ccc(NS(C)(=O)=O)cc1C(=O)O', 'SaCas9 (Staphylococcus aureus)', -1),
  ('CCN(CCN(C)C)c1ncc(NS(=O)(=O)c2cc(C)c(C)cc2C)cc1C(=O)O', 'SaCas9 (Staphylococcus aureus)', -1),
  ('Cc1ccccc1OCc1nn2c(C(C)(C)C)nnc2s1', 'SaCas9 (Staphylococcus aureus)', 1),
  ('COc1ccc2cc3c(N)nn(C(=O)c4ccc(F)cc4)c3nc2c1', 'SaCas9 (Staphylococcus aureus)', 1),
  ('CN(C)S(=O)(=O)Nc1cnc(N2CCC(CCN3CCCCC3)CC2)c(C(=O)O)c1', 'SaCas9 (Staphylococcus aureus)', 1),
  ('CCN(Cc1ccccc1)c1ncc(NS(=O)(=O)c2ccc(F)cc2)cc1C(=O)O', 'SaCas9 (Staphylococcus aureus)', -1),
  ('O=C1CC(c2ccc(O)c(O)c2)c2c(nc(SCc3cccc(Cl)c3)[nH]c2=O)N1 (centres unmarked)', 'SaCas9 (Staphylococcus aureus)', -1);

Each recorded value in this set is attributed to patent US20240115557A1.
